Data provenance: patent US20230212222A1

Each item that follows carries a reported ECmax (-fold induction over basal).
Target: T1, GPR39 (G protein-coupled receptor 39) (Homo sapiens (Human), UniProt O43194 1-453)
T1 sequence: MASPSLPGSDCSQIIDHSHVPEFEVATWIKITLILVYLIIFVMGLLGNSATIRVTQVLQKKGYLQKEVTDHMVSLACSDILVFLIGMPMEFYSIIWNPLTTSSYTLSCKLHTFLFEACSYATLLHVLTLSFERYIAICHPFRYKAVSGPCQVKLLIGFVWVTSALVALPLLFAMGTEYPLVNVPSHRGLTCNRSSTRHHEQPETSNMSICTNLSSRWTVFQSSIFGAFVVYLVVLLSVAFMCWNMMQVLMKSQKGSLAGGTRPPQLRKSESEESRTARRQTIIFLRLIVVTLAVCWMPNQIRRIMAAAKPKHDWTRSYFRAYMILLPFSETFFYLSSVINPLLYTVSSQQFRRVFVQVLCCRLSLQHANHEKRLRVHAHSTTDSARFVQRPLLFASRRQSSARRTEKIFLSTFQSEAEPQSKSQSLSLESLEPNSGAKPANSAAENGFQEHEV
Test: cell-based or functional assay
Square brackets hold non-standard residues; d marks the D form. Ends that are not written are not given here. * marks the point of attachment. 1,3‑difluorobenzhydryl = His with a 1-((2,4-difluorophenyl)(phenyl)methyl) group on the imidazole (N1); 4‑methoxylbenzhydryl = COc1ccc(C(c2ccccc2)*)cc1; Biotin = O=C1N[C@H]2[C@H](CS[C@H]2CCCCC(=O)*)N1; dPhe(4-Me) = Cc1ccc(C[C@@H](N)C(=O)O)cc1; Trt = c1ccc(C(c2ccccc2)(c2ccccc2)*)cc1; dPhe(4-F) = N[C@H](Cc1ccc(F)cc1)C(=O)O; Benzhydryl = c1ccc(C(c2ccccc2)*)cc1; 2‑cyclohexylethyl = C1CCC(CC*)CC1; Octanoyl = CCCCCCCC(=O)*

Prompt: Input H(3,3‑diphenylethyl)K(Octanoyl)FY [HKFY-17] , output reported ECmax (-fold induction over basal).
Completion: 20 -fold induction over basal

Prompt: Give the value of ECmax (-fold induction over basal) reported for the following: H(Benzhydryl)K(Octanoyl)[dPhe(4-Me)][Tyr(3-chloro)] [HKFY-67]
Completion: 10.2 -fold induction over basal

Prompt: Respond only with ECmax (-fold induction over basal) recorded for H(Trt)K(Octanoyl)[dPhe(4-F)]Y [HKFY-28]
Completion: 22.9 -fold induction over basal

Prompt: Return value of ECmax (-fold induction over basal) for input K(Octanoyl)H(Trt)FY [HKFY-55] , no commentary.
Completion: 16.8 -fold induction over basal

Prompt: Output ECmax (-fold induction over basal) of Biotin-H(Benzhydryl)K(Octanoyl)[dPhe(4-Me)]Y [HKFY-72]
Completion: 10.4 -fold induction over basal

Prompt: Give the value of ECmax (-fold induction over basal) reported for the following: H(2‑cyclohexylethyl)K(Octanoyl)FY [HKFY-11]
Completion: 22 -fold induction over basal

Prompt: Name the recorded ECmax (-fold induction over basal) of the item H(Trt)K(Octanoyl)[dPhe(4-Me)]Y [HKFY-30] in your answer.
Completion: 23.9 -fold induction over basal

Prompt: Name the recorded ECmax (-fold induction over basal) of the binder listed here: H(Benzhydryl)K(Octanoyl)[dPhe(4-Me)][Tyr(3,5-nitro)] [HKFY-69]
Completion: 12.2 -fold induction over basal

Prompt: Output ECmax (-fold induction over basal) of H(4‑methoxylbenzhydryl)K(Octanoyl)FY [HKFY-20]
Completion: 20.3 -fold induction over basal

Prompt: Annotate the binder H(1,3‑difluorobenzhydryl)K(Octanoyl)[dPhe(4-Me)]Y [HKFY-32] with its measured ECmax (-fold induction over basal).
Completion: 21.5 -fold induction over basal

Prompt: For the binder His(Benzhydryl)-Lys(Octanoyl) [HKFY-79] , report ECmax (-fold induction over basal).
Completion: 11.2 -fold induction over basal

Prompt: Give recorded ECmax (-fold induction over basal). [dH](Benzhydryl)K(Octanoyl)[dPhe(4-Me)]Y [HKFY-62]
Completion: 28.1 -fold induction over basal

Prompt: Output ECmax (-fold induction over basal) of H(Trt)K(Octanoyl)FYQNGARF [HKFY-41]
Completion: 12.2 -fold induction over basal
